Each item that follows carries a reported CM1 Growth (%) at 8 ppm Botrci.
tested on: Botrytis cinerea; experiment: Microtiterplate test: activity against the grey mold Botrytis cinerea (Botrci), also comparison test CM1; type: cell-based; settings: 7 days after inoculation, control = 100%

OC1(c2ccccc2)CCCCC1n1cncn1 (stereo not drawn) [Example No. 25 of EP 0 152 031, reference compound]    70%
OC1(c2ccc(-c3ccc(Cl)cc3)cc2)CCCCC1n1cncn1 (stereo not drawn)    0%
OC1(c2cccc(-c3ccc(Cl)cc3)c2)CCCCC1n1cncn1 (stereo not drawn)    0%

Determine reported CM1 Growth (%) at 8 ppm Botrci for OC1(c2ccc(F)cc2)CCCCC1n1cncn1 (stereo not drawn) [Example No. 28 of EP 0 152 031, reference compound] ; test system: Botrytis cinerea.
40%

Find the measured CM1 Growth (%) at 8 ppm Botrci of OC1(c2ccc(-c3ccccc3)cc2)CCCCC1n1cncn1 (stereo not drawn) with Botrytis cinerea as test system.
0%

Give measured CM1 Growth (%) at 8 ppm Botrci for OC1(c2ccc(Oc3ccc(Cl)cc3)cc2)CCCCC1n1cncn1 (stereo not drawn) (Botrytis cinerea).
0%

====

test system: Septoria tritici; assay: Microtest: activity against leaf blotch on wheat caused by Septoria tritici (Septtr), also comparison test CM3; format: cell-based; details: 7 days after inoculation, control = 100%
Lab note: anything with CM3 Growth (%) at 8 ppm Septtr at or over 2% counts as Satisfied; the rest go in Not satisfied.

Worked cases, answers included:
OC1(c2ccccc2)CCCCC1n1cncn1 (stereo not shown) [Example No. 25 of EP 0 152 031, reference compound]    Satisfied
OC1(c2cccc(-c3ccc(Cl)cc3)c2)CCCCC1n1cncn1 (stereo not shown)    Not satisfied

Assess whether reported CM3 Growth (%) at 8 ppm Septtr for OC1(c2ccc(Oc3ccc(Cl)cc3)cc2)CCCCC1n1cncn1 (stereo not shown) sits at 2% or higher.
Not satisfied

====

system: Septoria tritici; test: Microtest: activity against leaf blotch on wheat caused by Septoria tritici (Septtr), also comparison test CM3; assay type: cell-based; conditions: 7 days after inoculation, control = 100%
Listing: CM3 Growth (%) at 8 ppm Septtr of selected compounds
Field: numeric (%). Do not append units.

The following compounds have reported results that may help.
OC1(c2ccc(-c3ccccc3)cc2)CCCCC1n1cncn1 (stereo not shown)    1
OC1(c2ccc(-c3ccc(Cl)cc3)cc2)CCCCC1n1cncn1 (stereo not shown)    2
OC1(c2ccc(Cl)cc2)CCCCC1n1cncn1 (stereo not shown) [reference compound]    52

Now consider a different compound.
Could you please provide reported CM3 Growth (%) at 8 ppm Septtr for OC1(c2ccc(F)cc2)CCCCC1n1cncn1 (stereo not shown) [Example No. 28 of EP 0 152 031, reference compound] ? Thanks!
83
